B1: Hairpin Ribozyme (parent)
chain: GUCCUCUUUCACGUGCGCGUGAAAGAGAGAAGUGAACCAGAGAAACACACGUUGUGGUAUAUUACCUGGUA

# Variants of: B1
# MEASUREMENT_PROTOCOL: self-cleavage, relative activity (ratio to wild type); higher = more cleavage; co-transcriptional
The following ranges of self-cleavage define the classes used here: bin 0 (below 0.2), bin 1 (0.2 to below 0.5), bin 2 (0.5 or more)

>  <SEQUENCE>
GUCCUCUUUCACGAGCGCGUCAAAGAGAGAAGUGAACCAGAGAAACACACGUUGUGGUAUAUUACCUGGUA [U14A G21C]

>  <CATEGORY>
bin 1

$$$$
>  <SEQUENCE>
GUCCUCUUUCACGUGCGCGUGAAAGAGAGCAGUGAACCAGAGAAACACACGUUGUGGUAUAUCACCUGGUA [A30C U63C]

>  <CATEGORY>
bin 0

$$$$
>  <SEQUENCE>
GUCCUCUUUCACGUGGGCGUGAAAAAGAGAAGUGAACCAGAGAAACACACGUUGUGGUAUAUUACCUGGUA [C16G G25A]

>  <CATEGORY>
bin 2

$$$$
>  <SEQUENCE>
GUCCUCUUUCACGUAUGCGUGAAAGAGAGAAGUGAACCAGAGAAACACACGUUGUGGUAUAUUACCUGGUA [G15A C16U]

>  <CATEGORY>
bin 2

$$$$
>  <SEQUENCE>
GUCCUCUGCCACGUGCGCGUGAAAGAGAGAAGUGAACCAGAGAAACACACGUUGUGGUAUAUUACCUGGUA [U8G U9C]

>  <CATEGORY>
bin 2

$$$$
>  <SEQUENCE>
GUCCUCUGUCACGUGCGCGUGAAAGAGAGAAGUGAACCAUAGAAACACACGUUGUGGUAUAUUACCUGGUA [U8G G40U]

>  <CATEGORY>
bin 0

$$$$
>  <SEQUENCE>
GUCCUCUUUCACGUGCGCGGGAAAGAGAGAAGUGAACCAGAGAAACACACUUUGUGGUAUAUUACCUGGUA [U20G G51U]

>  <CATEGORY>
bin 2

$$$$
>  <SEQUENCE>
GUCCUCUUUCACGUGCGCGUGAAAGAGAGAAGUGAACCAGAGAAACACACGUUGUUGUAUAUUGCCUGGUA [G56U A64G]

>  <CATEGORY>
bin 0

$$$$
>  <SEQUENCE>
GUCCUCUUUCACGUGCGCGUGAAAGAGAGAAGUGAACCAGAGAAACACACCUUGUGGUCUAUUACCUGGUA [G51C A59C]

>  <CATEGORY>
bin 0

$$$$
>  <SEQUENCE>
GUCAUCUUUCACGUGCGCGUGAAAGAGAGAAGUGAACCAGAGAAACACACGUUGUGGUAUCUUACCUGGUA [C4A A61C]

>  <CATEGORY>
bin 0

$$$$
>  <SEQUENCE>
GUCCUCUUUCACGUCCGCGUGAAAGAGAGAAGUGAACCAGAGAAACACACGUUGUGGUAAAUUACCUGGUA [G15C U60A]

>  <CATEGORY>
bin 2

$$$$
>  <SEQUENCE>
GUCCUCUUUCACGUGCGCGUGAAAGAGAGAAGUGAACCAGAGAGACACAUGUUGUGGUAUAUUACCUGGUA [A44G C50U]

>  <CATEGORY>
bin 0

$$$$
>  <SEQUENCE>
GUCCGCUUUCACGUGCGCGUGAAAGAGAGAAGUGAACCAGAGAAACACACGUUGUGGUAUAUUACCUGGCA [U5G U70C]

>  <CATEGORY>
bin 1

$$$$
>  <SEQUENCE>
GUCCUCUUUCACGUGCGCGUAAAAGUGAGAAGUGAACCAGAGAAACACACGUUGUGGUAUAUUACCUGGUA [G21A A26U]

>  <CATEGORY>
bin 2

$$$$
>  <SEQUENCE>
GUACUCUUUCACGUGCGCGUGAAAGAGAGAAGUGAACCAGAGACACACACGUUGUGGUAUAUUACCUGGUA [C3A A44C]

>  <CATEGORY>
bin 0

$$$$
>  <SEQUENCE>
GUCCUCUUUCAUGUGCGCGUGAAAGAGAGAAGUGAACCAGAGAAACACACGUUGUGGUAUAUUACCUGGUA [C12U]

>  <CATEGORY>
bin 2

$$$$
>  <SEQUENCE>
GUCCUCCUUCACGUGCGCGUGAAAGAGAGACGUGAACCAGAGAAACACACGUUGUGGUAUAUUACCUGGUA [U7C A31C]

>  <CATEGORY>
bin 0

$$$$
>  <SEQUENCE>
GUCCCCAUUCACGUGCGCGUGAAAGAGAGAAGUGAACCAGAGAAACACACGUUGUGGUAUAUUACCUGGUA [U5C U7A]

>  <CATEGORY>
bin 1

$$$$
>  <SEQUENCE>
GUCCUCUUUCACGUGCGCGUGCAAGAGAGAAGUGAACCAGAGAAACACACGUUGGGGUAUAUUACCUGGUA [A22C U55G]

>  <CATEGORY>
bin 0

$$$$
>  <SEQUENCE>
GUCCUCUUUCACGUGCGCAUGAAAGAGAGAAGUGAACCAGAGCAACACACGUUGUGGUAUAUUACCUGGUA [G19A A43C]

>  <CATEGORY>
bin 0

$$$$
>  <SEQUENCE>
GUCCCCUUUCACGUGCGCGUGAAAGAGAGAAGUGAACCAGAGAAACACACGUUGUGGAAUAUUACCUGGUA [U5C U58A]

>  <CATEGORY>
bin 1

$$$$
>  <SEQUENCE>
GUCCUCUUUCACGUGCGCGUGAAAGAGAGAAGUGAACCAGAGAAACACACGUUGUGGUGUAUCACCUGGUA [A59G U63C]

>  <CATEGORY>
bin 0

$$$$
>  <SEQUENCE>
GUCCUCUUUCACGUGCGCGUGCAAGAGAGAAGUGAACCAGAGAAACACACGUUGUGGUAUAUUACCUGGCA [A22C U70C]

>  <CATEGORY>
bin 2

$$$$
>  <SEQUENCE>
GACCUCUUUGACGUGCGCGUGAAAGAGAGAAGUGAACCAGAGAAACACACGUUGUGGUAUAUUACCUGGUA [U2A C10G]

>  <CATEGORY>
bin 1

$$$$
>  <SEQUENCE>
CUCCUCUUUCACGUGCGCGUGAAAGAGAGAAGUGAACCAGUGAAACACACGUUGUGGUAUAUUACCUGGUA [G1C A41U]

>  <CATEGORY>
bin 1

$$$$
>  <SEQUENCE>
GUCCUCUUUCACGUGCGCGUGACAGAGAGAAGUGUACCAGAGAAACACACGUUGUGGUAUAUUACCUGGUA [A23C A35U]

>  <CATEGORY>
bin 2

$$$$
>  <SEQUENCE>
GUCCUCUUUCACGGGCGCGUGAAAGAGAGAAGUGAACCUGAGAAACACACGUUGUGGUAUAUUACCUGGUA [U14G A39U]

>  <CATEGORY>
bin 1

$$$$
>  <SEQUENCE>
GUCCUCUAUCACGAGCGCGUGAAAGAGAGAAGUGAACCAGAGAAACACACGUUGUGGUAUAUUACCUGGUA [U8A U14A]

>  <CATEGORY>
bin 2

$$$$
>  <SEQUENCE>
GUCCCCUUUCACGUGCGCGUGAAAGAGAGAAGUGCACCAGAGAAACACACGUUGUGGUAUAUUACCUGGUA [U5C A35C]

>  <CATEGORY>
bin 2

$$$$
>  <SEQUENCE>
GUCCUCUUCCACGUGCGCGUGAAAGAGAGAAGUGAACCAGAGUAACACACGUUGUGGUAUAUUACCUGGUA [U9C A43U]

>  <CATEGORY>
bin 1

$$$$
>  <SEQUENCE>
GUCCCCUUUCACGUGCGCAUGAAAGAGAGAAGUGAACCAGAGAAACACACGUUGUGGUAUAUUACCUGGUA [U5C G19A]

>  <CATEGORY>
bin 1

$$$$
>  <SEQUENCE>
GUCCUCUUUCACGUGCGCGUGAAAGAGACAAGUGAACCAGAGAAACACACGUUAUGGUAUAUUACCUGGUA [G29C G54A]

>  <CATEGORY>
bin 0

$$$$
>  <SEQUENCE>
GUCCUCUUUCACGUGCGUGUGAAAGAGAGAAGUGAACCAGAGAAACACACGUUGUGGUCUAUUACCUGGUA [C18U A59C]

>  <CATEGORY>
bin 1

$$$$
>  <SEQUENCE>
GUCCUCUUUCACGUGCGUGUGAAAGAGAGAAGUGAACCAGAGAAACACACGUUGUGGUAUAUUACCUGGUG [C18U A71G]

>  <CATEGORY>
bin 2

$$$$

Ref: the RNAGym collection of RNA variant scans (doi:10.7554/elife.80360)
